test system: CYP3A4; test: Phase 1 clinical DDI study, midazolam probe with or without relacorilant; format: in vivo, human; settings: both, human, plasma, po, 2.5 mg
recorded-metric: AUC(0-inf) (ng·h/mL)
// return numeric value only (unit: ng·h/mL, not printed)

Dear colleague, I am looking for the recorded AUC(0-inf) of the following compound: "Cc1ncc2n1-c1ccc(Cl)cc1C(c1ccccc1F)=NC2" 36.4

---

system: CYP3A4; assay: Phase 1 clinical DDI study, midazolam probe with or without relacorilant; assay type: in vivo, human; conditions: both, human, plasma, po, 2.5 mg, probe midazolam
recorded-metric: Cmax (ng/mL)
// return numeric value only (unit: ng/mL, not printed)

Identify the measured Cmax of "Cc1ncc2n1-c1ccc(Cl)cc1C(c1ccccc1F)=NC2" for CYP3A4. 12.7

---

molecular target: CYP2C8 (Homo sapiens, UniProt P10632); assay: Phase 1 clinical DDI study, pioglitazone probe with or without relacorilant; assay type: in vivo; conditions: both, human, plasma, po, 15 mg
Sequence (P10632 whole entry): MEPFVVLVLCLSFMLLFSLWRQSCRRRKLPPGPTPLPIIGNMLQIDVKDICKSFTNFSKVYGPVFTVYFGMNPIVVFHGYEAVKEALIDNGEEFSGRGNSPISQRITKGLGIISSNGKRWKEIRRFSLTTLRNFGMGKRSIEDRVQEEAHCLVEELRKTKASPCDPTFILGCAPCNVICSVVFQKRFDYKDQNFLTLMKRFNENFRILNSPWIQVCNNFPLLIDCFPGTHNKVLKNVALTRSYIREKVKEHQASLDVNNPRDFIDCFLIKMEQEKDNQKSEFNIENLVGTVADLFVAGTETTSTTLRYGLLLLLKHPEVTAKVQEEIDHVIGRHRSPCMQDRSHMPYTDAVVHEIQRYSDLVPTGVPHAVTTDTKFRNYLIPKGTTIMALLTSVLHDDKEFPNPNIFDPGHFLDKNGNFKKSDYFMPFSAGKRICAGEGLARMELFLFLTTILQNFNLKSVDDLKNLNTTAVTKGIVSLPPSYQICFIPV
recorded-metric: AUC(0-inf) (ng·h/mL)
// return numeric value only (unit: ng·h/mL, not printed)

Dear colleague, I am looking for the recorded AUC(0-inf) of the following compound: CCc1ccc(CCOc2ccc(CC3SC(=O)NC3=O)cc2)nc1 (stereo not shown) 5650

---

biological target: CYP2C8 (Homo sapiens, UniProt P10632); assay: Phase 1 clinical DDI study, pioglitazone probe with or without relacorilant; assay type: in vivo; details: both, human, plasma, po, 15 mg, probe pioglitazone
recorded-metric: Cmax (ng/mL)
// return numeric value only (unit: ng/mL, not printed)

Dear colleague, I am looking for the recorded Cmax of the following molecule: CCc1ccc(CCOc2ccc(CC3SC(=O)NC3=O)cc2)nc1 (stereo not shown) 525

---

target: CYP2C8 (Homo sapiens); assay: Phase 1 clinical DDI study, pioglitazone probe with or without relacorilant; assay type: in vivo; conditions: both, human, plasma, po, 15 mg, probe pioglitazone
recorded-metric: AUC(0-t) (ng·h/mL)
// return numeric value only (unit: ng·h/mL, not printed)

Dear colleague, I am looking for the recorded AUC(0-t) of the following molecule: CCc1ccc(CCOc2ccc(CC3SC(=O)NC3=O)cc2)nc1 (stereo not shown) [Pioglitazone, pioglitazone] 5530

---

biological target: CYP3A4 (Homo sapiens)
Sequence (P08684 whole entry): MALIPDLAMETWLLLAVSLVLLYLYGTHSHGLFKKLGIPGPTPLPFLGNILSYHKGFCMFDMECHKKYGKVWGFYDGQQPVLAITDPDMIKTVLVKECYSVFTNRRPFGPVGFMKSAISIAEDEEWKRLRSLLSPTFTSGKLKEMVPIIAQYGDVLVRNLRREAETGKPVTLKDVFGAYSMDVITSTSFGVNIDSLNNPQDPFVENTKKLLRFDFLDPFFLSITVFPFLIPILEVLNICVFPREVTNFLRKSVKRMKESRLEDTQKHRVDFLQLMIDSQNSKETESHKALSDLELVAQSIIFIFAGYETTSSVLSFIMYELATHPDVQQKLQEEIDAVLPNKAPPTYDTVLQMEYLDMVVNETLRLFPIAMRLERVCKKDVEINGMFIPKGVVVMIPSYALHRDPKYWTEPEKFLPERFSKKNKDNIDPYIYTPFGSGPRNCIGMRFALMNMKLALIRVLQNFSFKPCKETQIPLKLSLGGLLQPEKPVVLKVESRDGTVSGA
recorded-metric: IC50 (nM)
// return numeric value only (unit: nM, not printed)

Dear colleague, I am looking for the recorded IC50 of the following compound: Cn1cc(S(=O)(=O)N2CCC3=Cc4c(cnn4-c4ccc(F)cc4)C[C@]3(C(=O)c3cc(C(F)(F)F)ccn3)C2)cn1 [Relacorilant] 1320

---

target: UniProtKB P10632; assay: Phase 1 clinical DDI study, pioglitazone probe with or without relacorilant; format: in vivo; conditions: both, human, plasma, po, 15 mg, probe pioglitazone
recorded-metric: Tmax (h)
// return numeric value only (unit: h, not printed)

Dear colleague, I am looking for the recorded Tmax of the following compound: CCc1ccc(CCOc2ccc(CC3SC(=O)NC3=O)cc2)nc1 (stereo not shown) 2

Source of measurements: paper PMC7818505
